Ref: PubChem BioAssay (NCI)

# System: HL-60(TB) leukemia
# PROCEDURE TEXT: NCI-60 one-dose screen, 48 h
# TEST SETTINGS: 10 µM unless noted
The panel holds about 83,000 compounds, 20% with a hit somewhere; the sample as a whole holds those more often. The source made the active and inactive calls. How the source made its calls: active means growth percent below 10; inactive means the rest.
I would appreciate it if you answered using one of these outcomes: active, inactive

# COMPOUND, CATEGORY LABEL
rows = [
    ("O=C(Nc1ccccc1Cl)c1ccc(NC2=C(Cl)C(=O)N(C3CCCCC3)C2=O)cc1", "active"),
    ("O=c1cc(-c2ccccc2)[nH]c2c1CCCC2", "inactive"),
    ("Nc1n[nH]c2cccc(C#Cc3cccc(NC(=O)c4ccc(N5CCOCC5)c(C(F)(F)F)c4)c3)c12", "active"),
    ("COc1cc(-c2nc3sccn3c2-c2ccnc(NCCNS(=O)(=O)c3ccc(F)cc3)n2)ccc1F", "active"),
    ("C#CCNC(=S)N/N=C(\\C)c1ccccn1", "active"),
    ("CC1(O)CCCCC1O (centres undefined)", "inactive"),
    ("NC(=S)N/N=C/c1ccc(OC(=O)COc2ccccc2)cn1", "inactive"),
    ("C/C=C/C1OC23CCCCC2C(C#N)(C(=N)O3)C1(C#N)C#N (centres undefined)", "inactive"),
    ("COc1ccc(NC(=O)[C@@H]2C[C@H]2c2ccccc2)c(C(N)=O)c1", "inactive"),
    ("Oc1c(Br)cc(Br)c2ccc(Cn3cc(-c4ccc(C(F)(F)F)cc4)nn3)nc12", "active"),
]

How was Cc1ccc(C2=C/C(=C/c3ccc(Br)cc3)C(=O)N2CCc2ccc(S(N)(=O)=O)cc2)cc1 classified in this test?
inactive

How was CCOC(=O)C1=C(COCCN)NC(C)=C(C(=O)OC)C1c1ccccc1Cl (centres undefined) classified in this test?
inactive

How was COc1cc2c(c(OC)c1OC)-c1ccc(NNC(N)=S)c(=O)cc1[C@@H](NC(C)=O)CC2 classified in this test?
active

How was Cc1ccc2c(n1)C(=O)C(Oc1ccc(Br)cc1)=CC2=O classified in this test?
inactive

How was COc1ccc2c(c1)c(-c1nc(-c3c[nH]c4c(Cl)nccc34)cs1)cn2C classified in this test?
inactive

How was C[C@H](Oc1cc(-c2cnn(C3CCNCC3)c2)cnc1N)c1c(Cl)ccc(F)c1Cl classified in this test?
inactive

How was O=C(CN1CCCCC1)Nc1ccc2oc(=O)ccc2c1 classified in this test?
inactive

How was CN(C)CCCC(C#N)c1ccccc1 (centres undefined) classified in this test?
inactive

How was O=C(CSc1nnc(-c2cccnc2SCc2ccccc2)o1)Nc1nc(Cl)cc(Cl)n1 classified in this test?
inactive

---

# System: NCI-H522 lung
# PROCEDURE TEXT: NCI-60 one-dose screen, 48 h
# TEST SETTINGS: 10 µM unless noted
Compounds without any hit were thinned out: in the full panel of roughly 83,000, 20% have a hit. Active and inactive are the calls of the source. The calls were made as follows: active = growth percent below 10; inactive = the rest.
I would appreciate it if you answered using one of these outcomes: active, inactive

Example results:
# COMPOUND, CATEGORY LABEL
data = [
    ("CCOc1c(Cl)cc(CNC(C)C(O)c2ccccc2)cc1OC (configuration not stated)", "inactive"),
    ("COP(=S)(OC)Oc1ccc(SC)c(C)c1", "inactive"),
    ("CCOC(=O)Nc1cc(Cl)c([N+](=O)[O-])c(NC(=O)OCC)n1", "active"),
    ("CCCCNCCc1ccccn1", "inactive"),
    ("CC(C)(C)N(Cc1ccccc1)N=O", "inactive"),
    ("C1CN1c1nc(N2CC2)nc(N2CC2)n1", "active"),
]

From here, focus on the item given below.
How was CC12CCC(=O)C=C1C(O)CC1C2CCC2(C)C(O)CCC12 (configuration not stated) classified in this test?
inactive
